# ASSAY_PROTOCOL: Probe fluorescence ratio response to stearic acid relative to ADIFAB2
# Type: binding
# CONDITION_CONTEXT: response relative to ADIFAB2
# From the text: In an alternate preferred embodiment, the protein is rI-FABP that has Ala substituted for Leu at position 72 (rI-FABP-L72A) with the resulting probe named ADIFAB2. […] ADIFAB2 also has an altered spectral response, making it especially useful for measurements of FFAu in blood samples (Apple et al, Clinical Proteomics, (2004) 1:41-44, U.S. patent application Ser. No. 10/670,958). […] The baseline value for this ratio, measured in the absence of analyte, is designated R0. […]
Label 1.0 when DR/DR SA is strictly below 0.7; at or above that, label 0.0.

Examples from the recorded data:
Please let me know if 72T 73W 74L (protein, listed as Rattus norvegicus, PEPTIDE (1)...(131) wild-type rat intestinal fatty acid binding protein) AFDGTWKVDRNENYEKFMEKMGINVVKRKLGAHDNLKLTITQEGNKFTVKESSNFRNIDVVFELGVDFAYSTWLGTELTGTWTMEGNKLVGKFKRVDNGKELIAVREISGNELIQTYTYEGVEAKRIFKKE shows DR/DR SA below 0.7.
0.0

Please indicate whether the reported DR/DR SA of 72S 73W 74E (protein, listed as Rattus norvegicus, PEPTIDE (1)...(131) wild-type rat intestinal fatty acid binding protein) AFDGTWKVDRNENYEKFMEKMGINVVKRKLGAHDNLKLTITQEGNKFTVKESSNFRNIDVVFELGVDFAYSSWEGTELTGTWTMEGNKLVGKFKRVDNGKELIAVREISGNELIQTYTYEGVEAKRIFKKE is strictly below 0.7.
0.0

Hi there! Is DR/DR SA for 18V 31V 73I 72A (protein, listed as Rattus norvegicus, PEPTIDE (1)...(131) wild-type rat intestinal fatty acid binding protein) AFDGTWKVDRNENYEKFVEKMGINVVKRKLVAHDNLKLTITQEGNKFTVKESSNFRNIDVVFELGVDFAYSAIDGTELTGTWTMEGNKLVGKFKRVDNGKELIAVREISGNELIQTYTYEGVEAKRIFKKE below 0.7, do you know?
1.0

---
Identify whether the molecule 73W 74T (protein, listed as Rattus norvegicus, PEPTIDE (1)...(131) wild-type rat intestinal fatty acid binding protein) AFDGTWKVDRNENYEKFMEKMGINVVKRKLGAHDNLKLTITQEGNKFTVKESSNFRNIDVVFELGVDFAYSLWTGTELTGTWTMEGNKLVGKFKRVDNGKELIAVREISGNELIQTYTYEGVEAKRIFKKE records DR/DR SA below 0.7.
0.0

Find out if reported DR/DR SA for 38M 104S 115A 74F 72A (protein, listed as Rattus norvegicus, PEPTIDE (1)...(131) wild-type rat intestinal fatty acid binding protein) AFDGTWKVDRNENYEKFMEKMGINVVKRKLGAHDNLKMTITQEGNKFTVKESSNFRNIDVVFELGVDFAYSAAFGTELTGTWTMEGNKLVGKFKRVDNGKELISVREISGNELIATYTYEGVEAKRIFKKE is less than 0.7
1.0
